assay-protocol: cytotoxicity, colony reduction of hamster V-79 cells
Assay type: cell-based
test-conditions: 3 hours treatment, colonies counted after 5 days, read-out: cytotoxicity IC50 (Cytotox)
Where a name gives a salt, the structure may show the parent alone.
readout-name: CC50 at 3 h (µg/mL)

[[record]]
molecule = "CC(C)(N)[C@@H]1CCN(c2nc3c(cc2F)c(=O)c(C(=O)O)cn3C2CC2)C1 [Example 4, monohydrochloride]"
reported_result = 130

[[record]]
molecule = "CC(C)(N)[C@@H]1CCN(c2cc3c(c(N)c2F)c(=O)c(C(=O)O)cn3C2CC2)C1 [Example 9]"
reported_result = 13

[[record]]
molecule = "CC(C)(N)[C@H]1CCN(c2nc3c(cc2F)c(=O)c(C(=O)O)cn3C2CC2)C1.Cl [Example 3, monohydrochloride]"
reported_result = 58

[[record]]
molecule = "CC(C)(N)[C@@H]1CCN(c2c(F)cc3c(=O)c(C(=O)O)cn(C4CC4)c3c2Cl)C1 [Example 2, monohydrochloride]"
reported_result = 8

[[record]]
molecule = "CC(C)(N)C1CCN(c2nc3c(cc2F)c(=O)c(C(=O)O)cn3C2CC2)C1 (stereo not drawn) [reference compound]"
reported_result = 66

[[record]]
molecule = "COc1c(N2CC[C@@H](C(C)(C)N)C2)c(F)cc2c(=O)c(C(=O)O)cn(C3CC3)c12 [Example 7]"
reported_result = 18


====

assay-protocol: in vivo
Design: species or system mice
test-conditions: mouse, po
Counter-ions that a name gives are not always drawn.
The following compounds are listed with their measured NOAEL values.
readout-name: NOAEL (mg/kg)

[[record]]
compound = "CC(C)(N)[C@H]1CCN(c2nc3c(cc2F)c(=O)c(C(=O)O)cn3C2CC2)C1.Cl"
reported_result = 30

[[record]]
compound = "CC(C)(N)[C@@H]1CCN(c2nc3c(cc2F)c(=O)c(C(=O)O)cn3C2CC2)C1 [Example 4, monohydrochloride]"
reported_result = 30

[[record]]
compound = "CC(C)(N)C1CCN(c2nc3c(cc2F)c(=O)c(C(=O)O)cn3C2CC2)C1 (stereo not drawn) [reference compound]"
reported_result = 30


====

The following compounds are listed with their measured MIC values.
System: Pseud. aeruginosa UI-18
assay-protocol: in vitro antibacterial activity, microtitration dilution (MIC), Pseud. aeruginosa UI-18
Assay type: cell-based
test-conditions: Pseudomonas aeruginosa, UI18, read-out: minimum inhibiting concentration (MIC)
Counter-ions that a name gives are not always drawn.
readout-name: MIC (µg/mL)

[[record]]
compound = "CC(C)(N)[C@H]1CCN(c2c(F)cc3c(=O)c(C(=O)O)cn(C4CC4)c3c2F)C1 [Example 12]"
quantity_unit = "µg/mL"
reported_result = 1.6

[[record]]
compound = "COc1c(N2CC[C@H](C(C)(C)N)C2)c(F)cc2c(=O)c(C(=O)O)cn(C3CC3)c12 [Example 8]"
quantity_unit = "µg/mL"
reported_result = 3.1

[[record]]
compound = "CC(C)(N)[C@H]1CCN(c2c(F)cc3c(=O)c(C(=O)O)cn(C4CC4)c3c2Cl)C1 [Example 1, monohydrochloride]"
quantity_unit = "µg/mL"
reported_result = 1.6

[[record]]
compound = "CC(C)(N)C1CCN(c2nc3c(cc2F)c(=O)c(C(=O)O)cn3C2CC2)C1 (stereo not drawn) [reference compound]"
quantity_unit = "µg/mL"
reported_result = 1.6

[[record]]
compound = "COc1c(N2CC[C@@H](C(C)(C)N)C2)c(F)cc2c(=O)c(C(=O)O)cn(C3CC3)c12 [Example 7]"
quantity_unit = "µg/mL"
reported_result = 1.6

[[record]]
compound = "CC(C)(N)[C@H]1CCN(c2nc3c(cc2F)c(=O)c(C(=O)O)cn3C2CC2)C1.Cl [Example 3]"
quantity_unit = "µg/mL"
reported_result = 3.1

[[record]]
compound = "CC(C)(N)[C@@H]1CCN(c2cc3c(c(N)c2F)c(=O)c(C(=O)O)cn3C2CC2)C1 [Example 9]"
quantity_unit = "µg/mL"
reported_result = 3.1

[[record]]
compound = "CC(C)(N)[C@@H]1CCN(c2nc3c(cc2F)c(=O)c(C(=O)O)cn3C2CC2)C1 [Example 4, monohydrochloride]"
quantity_unit = "µg/mL"
reported_result = 1.6

[[record]]
compound = "CNC(C)(C)[C@@H]1CCN(c2c(F)cc3c(=O)c(C(=O)O)cn(C4CC4)c3c2Cl)C1 [Example 6, monohydrochloride]"
quantity_unit = "µg/mL"
reported_result = 3.1

[[record]]
compound = "Cc1c(F)c(N2CC[C@H](C(C)(C)N)C2)cc2c1c(=O)c(C(=O)O)cn2-c1ccc(F)cc1F [Example 11]"
quantity_unit = "µg/mL"
reported_result = 1.6

[[record]]
compound = "Cc1c(F)c(N2CC[C@@H](C(C)(C)N)C2)cc2c1c(=O)c(C(=O)O)cn2-c1ccc(F)cc1F [Example 10]"
quantity_unit = "µg/mL"
reported_result = 3.1

[[record]]
compound = "CC(C)(N)[C@@H]1CCN(c2c(F)cc3c(=O)c(C(=O)O)cn(C4CC4)c3c2Cl)C1 [Example 2, monohydrochloride]"
quantity_unit = "µg/mL"
reported_result = 0.8


====

Measured MIC (Prot. rettgeri M 1771)
Structures can show the parent of a compound that is named as a salt.
readout-name: MIC (µg/mL)

[[record]]
compound = "Cc1c(F)c(N2CC[C@@H](C(C)(C)N)C2)cc2c1c(=O)c(C(=O)O)cn2-c1ccc(F)cc1F"
readout_name = "MIC"
quantity_unit = "µg/mL"
reported_result = 1.6

[[record]]
compound = "CC(C)(N)[C@@H]1CCN(c2c(F)cc3c(=O)c(C(=O)O)cn(C4CC4)c3c2Cl)C1 [Example 2, monohydrochloride]"
readout_name = "MIC"
quantity_unit = "µg/mL"
reported_result = 0.2

[[record]]
compound = "CC(C)(N)[C@H]1CCN(c2c(F)cc3c(=O)c(C(=O)O)cn(C4CC4)c3c2Cl)C1 [Example 1, monohydrochloride]"
readout_name = "MIC"
quantity_unit = "µg/mL"
reported_result = 0.4

[[record]]
compound = "CC(C)(N)[C@H]1CCN(c2c(F)cc3c(=O)c(C(=O)O)cn(C4CC4)c3c2F)C1"
readout_name = "MIC"
quantity_unit = "µg/mL"
reported_result = 0.4

